B1: POU domain, class 3, transcription factor 4, residues 280 to 335; numbered along this chain, P49335 (parent)
chain: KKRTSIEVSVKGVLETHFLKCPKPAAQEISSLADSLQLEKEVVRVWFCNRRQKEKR

# Variants of: B1
# METHOD SUMMARY: abundance fitness (aPCA) (normalised: wild type 0, dead -1); higher = more abundant; growth selection in yeast, the domain comes from the species named
# SETUP CONDITIONS: Homo sapiens
Hi all, reminder that labels come from abundance fitness, split as bucket A (below -0.5), bucket B (-0.5 to below -0.2), bucket C (-0.2 or more)

Please review the entries below; each comes with its answer.
{"columns": ["SEQUENCE RECORD", "CLASS LABEL"],
 "data": [
  ["KKRTSIEVSVKGVLETHFLICPKPAAQEISSLADSLQLEKEVVRVWFCNRRQKEKR [K20I]", "bucket A"],
  ["KKRTSIEVSVKGVLETHFLKCPKPAAQEISSLADSLQLEKEVMRVWFCNRRQKEKR [V43M]", "bucket A"],
  ["KKRTSIEVSVKGVLETHFLKCPKPAAQEISSLADSLQLEDEVVRVWFCNRRQKEKR [K40D]", "bucket B"]
]}

Into which category would you place KKRTSIEVSVKGVLETHFLKCPKPAAQEISSLADSLQLEKEVVRVWHCNRRQKEKR [F47H] ?
bucket A

Bin? KKRTSIEVSVKGVLETHFLVCPKPAAQEISSLADSLQLEKEVVRVWFCNRRQKEKR [K20V]
bucket B

Band of KKRTSIEVSVKGVLETHFLKCPKPAAQEISSLADSLQLEKDVVRVWFCNRRQKEKR [E41D] ?
bucket C

Kindly identify the class of KKRTSIEVSVKGVLETIFLKCPKPAAQEISSLADSLQLEKEVVRVWFCNRRQKEKR [H17I] .
bucket A

Bin? KKRYSIEVSVKGVLETHFLKCPKPAAQEISSLADSLQLEKEVVRVWFCNRRQKEKR [T4Y]
bucket B

Dear colleague, I would appreciate it if you could identify the bin for KKRTSIEVSVKGVLETHFLKWPKPAAQEISSLADSLQLEKEVVRVWFCNRRQKEKR [C21W] and reply at your convenience.
bucket A

Textbook exercise: identify the category of the variant given here, KKRTSIEVSVKGVLETHFLKCPKPAAQEISSLAKSLQLEKEVVRVWFCNRRQKEKR [D34K] , according to its measured value.
bucket C

The entry to classify is KKRTSIEVSVKGVLETHFLKIPKPAAQEISSLADSLQLEKEVVRVWFCNRRQKEKR [C21I] ; which class holds it?
bucket A

Kindly state the category for this variant: KKRTSIEVSVKGRLETHFLKCPKPAAQEISSLADSLQLEKEVVRVWFCNRRQKEKR [V13R]
bucket B

Pick a category. Item: KKRTSIEVSVKGVLLTHFLKCPKPAAQEISSLADSLQLEKEVVRVWFCNRRQKEKR [E15L]
bucket A

The entry to classify is KKRTSIEVSVKGVLETHFLKCPKPAAQEISSLADSLQLEKEVVRVWFCIRRQKEKR [N49I] ; which class holds it?
bucket A

Lab note: which band did KKGTSIEVSVKGVLETHFLKCPKPAAQEISSLADSLQLEKEVVRVWFCNRRQKEKR [R3G] land in?
bucket C

Dear colleague, I would appreciate it if you could identify the bin for KKRTSIEVSVKGVLETHFLKCPKPAAQFISSLADSLQLEKEVVRVWFCNRRQKEKR [E28F] and reply at your convenience.
bucket A

// return the class label for KKRTSIEVSVKGVLETHFLKCPKPAAQEIESLADSLQLEKEVVRVWFCNRRQKEKR [S30E]
bucket C
